- TESTED SYSTEM: protein-protein interaction between SOS1 and KRAS G12D (Homo sapiens (Human))
- EXPERIMENTAL PROTOCOL: KRAS::SOS1 AlphaScreen Binding Assay
- CONDITION: Table 20; KRAS::SOS1 AlphaScreen (SOS1 / KRAS G12D)
Listing: IC50 of selected compounds

{"COMPOUND": "Cc1nc(N[C@H](C)c2cccc(C(F)F)c2F)c2cn(C34CC(C3)C4)c(=O)cc2n1 [I-15]", "IC50": "8 nM"}
{"COMPOUND": "Cc1nc(N[C@H](C)c2cccc(C(C)(F)F)c2F)c2cn(C3(C)CC3)c(=O)c(F)c2n1 [I-86]", "IC50": "6 nM"}
{"COMPOUND": "Cc1nc(N[C@H](C)c2cccc(C(F)(F)F)c2F)c2cn([C@H]3CCOC3)c(=O)cc2n1 [I-34]", "IC50": "39 nM"}
{"COMPOUND": "Cc1nc(N[C@H](C)c2cccc(C(F)(F)F)c2)c2cn(C3(C)CC3)c(=O)cc2n1 [I-25]", "IC50": "13 nM"}

----------
# reported RLM [% QH]; entries follow
- EXPERIMENTAL PROTOCOL: Metabolic (microsomal) stability assay, rat liver microsomes (RLM)
- Type: in vitro ADME
- CONDITION: 1 μM test compound, 37° C.
- Protocol: Metabolic (Microsomal) Stability Assay: The metabolic degradation of the test compound is assayed at 37° C. with pooled liver microsomes (mouse (MLM), rat (RLM) or human (HLM)). […] Additionally, the NADPH-independent degradation is monitored in incubations without NADPH, terminated at the last time point by addition of acetonitrile. […] In vitro intrinsic clearance (CLint, in vitro) is calculated from the time course of the disappearance of the test drug during the microsomal incubation. […]
ASSAY READOUT: RLM [% QH]

{"COMPOUND": "Cc1nc(N[C@H](C)c2cccc(C(F)F)c2F)c2cn(C3(C)CC3)c(=O)c(F)c2n1 [I-80]", "ASSAY READOUT": "RLM [% QH]", "RESULT": "<23 % QH"}
{"COMPOUND": "Cc1nc(N[C@H](C)c2cccc(C(F)(F)F)c2)c2cn(C(C)C)c(=O)cc2n1 [I-27]", "ASSAY READOUT": "RLM [% QH]", "RESULT": "<23 % QH"}
{"COMPOUND": "Cc1nc(N[C@H](C)c2cccc(C(F)(F)F)c2)c2cn(C3(C)CC3)c(=O)cc2n1 [I-25]", "ASSAY READOUT": "RLM [% QH]", "RESULT": "<23 % QH"}
{"COMPOUND": "Cc1nc(N[C@H](C)c2cccc(C(C)(F)F)c2)c2cn(C34CC(F)(C3)C4)c(=O)cc2n1 [I-51]", "ASSAY READOUT": "RLM [% QH]", "RESULT": "49 % QH"}

----------
- TESTED SYSTEM: protein-protein interaction between SOS1 and KRAS G12D (Homo sapiens (Human), UniProt Q07889)
- Sequence (Q07889 564-1049, stated change not applied): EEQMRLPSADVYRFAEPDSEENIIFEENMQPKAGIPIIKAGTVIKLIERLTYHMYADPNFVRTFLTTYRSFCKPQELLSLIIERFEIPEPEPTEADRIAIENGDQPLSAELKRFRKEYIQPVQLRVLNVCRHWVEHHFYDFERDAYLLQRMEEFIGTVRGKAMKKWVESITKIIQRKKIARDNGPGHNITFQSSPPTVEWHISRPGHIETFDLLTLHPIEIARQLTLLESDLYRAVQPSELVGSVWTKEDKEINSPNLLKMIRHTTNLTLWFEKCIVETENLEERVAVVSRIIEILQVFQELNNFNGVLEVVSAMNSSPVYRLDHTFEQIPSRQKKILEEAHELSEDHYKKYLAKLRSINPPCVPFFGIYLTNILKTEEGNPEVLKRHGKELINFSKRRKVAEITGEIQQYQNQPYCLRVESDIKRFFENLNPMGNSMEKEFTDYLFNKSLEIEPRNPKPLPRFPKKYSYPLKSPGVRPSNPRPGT
- EXPERIMENTAL PROTOCOL: KRAS::SOS1 AlphaScreen Binding Assay
- CONDITION: Table 20; KRAS::SOS1 AlphaScreen (SOS1 / KRAS G12D)
pIC50: −log10 of the molar value.
Label rule met when pIC50 is at or above 8; anything below gets rule not met.

{"COMPOUND": "Cc1nc(N[C@H](C)c2cccc(C(C)(F)F)c2F)c2cn(C3(C)CC3)c(=O)cc2n1 [I-52]", "QUALITATIVE LABEL": "rule met"}
{"COMPOUND": "Cc1nc(N[C@H](C)c2cccc(C(F)(F)F)c2)c2cn(C3CC3)c(=O)cc2n1 [I-26]", "QUALITATIVE LABEL": "rule not met"}
{"COMPOUND": "Cc1nc(N[C@H](C)c2cccc(C(F)F)c2F)c2cn(C34CCC(CC3)C4)c(=O)cc2n1 [I-19]", "QUALITATIVE LABEL": "rule met"}
{"COMPOUND": "Cc1nc(N[C@H](C)c2cccc(C(F)(F)F)c2)c2cn(C3CCCCC3)c(=O)cc2n1 [I-29]", "QUALITATIVE LABEL": "rule not met"}
{"COMPOUND": "Cc1nc(N[C@H](C)c2cccc3c2CCC3(F)F)c2cn(C34CCN(CC3)C4)c(=O)cc2n1 [I-60]", "QUALITATIVE LABEL": "rule met"}
{"COMPOUND": "Cc1nc(N[C@H](C)c2cccc(C(F)(F)CO)c2F)c2cn(C34CCC(CC3)C4)c(=O)cc2n1 [I-61]", "QUALITATIVE LABEL": "rule met"}
{"COMPOUND": "Cc1nc(N[C@H](C)c2cccc(C(F)F)c2F)c2cn(C34CC(N5CCOCC5)(C3)C4)c(=O)cc2n1 [I-17]", "QUALITATIVE LABEL": "rule met"}
{"COMPOUND": "C[C@@H](Nc1ncnc2cc(=O)n(C34CCC(F)(CC3)CC4)cc12)c1cccc(C(F)F)c1F [I-73]", "QUALITATIVE LABEL": "rule met"}
{"COMPOUND": "Cc1nc(N[C@H](C)c2cccc(C(F)(F)F)c2)c2cn(C(C)C)c(=O)cc2n1 [I-27]", "QUALITATIVE LABEL": "rule not met"}
{"COMPOUND": "Cc1nc(N[C@H](C)c2cccc3c(F)coc23)c2cn(C3(C(F)F)CC3)c(=O)cc2n1 [I-103]", "QUALITATIVE LABEL": "rule met"}
{"COMPOUND": "Cc1nc(N[C@H](C)c2cccc(C(C)(F)F)c2)c2cn(C34CC(F)(C3)C4)c(=O)cc2n1 [I-51]", "QUALITATIVE LABEL": "rule not met"}

----------
- TESTED SYSTEM: protein-protein interaction between SOS1 and KRAS G12D (Homo sapiens (Human), UniProt Q07889)
- EXPERIMENTAL PROTOCOL: KRAS::SOS1 AlphaScreen Binding Assay
- CONDITION: KRAS G12D::SOS1 AlphaScreen; measured without EDTA unless marked with an asterisk

{"COMPOUND": "Cc1c(=O)n(C2(CF)CC2)cc2c(N[C@H](C)c3cccc(C(C)(F)F)c3F)ncnc12", "IC50": "13 nM"}
{"COMPOUND": "Cc1nc(N[C@H](C)c2cccc(C(F)F)c2F)c2cn(C3(C(F)(F)F)CCOC3)c(=O)cc2n1 (some centres unmarked)", "IC50": "9 nM"}
{"COMPOUND": "Cc1nc(N[C@H](C)c2cccc(C(F)F)c2F)c2cn(C34CCC(CC3)CC4)c(=O)cc2n1", "IC50": "6 nM"}
{"COMPOUND": "Cc1nc(N[C@H](C)c2cccc(C(F)F)c2F)c2cn(C3(C)CC3)c(=O)c(C)c2n1", "IC50": "5 nM"}
{"COMPOUND": "Cc1nc(N[C@H](C)c2cccc(C(F)F)c2F)c2cn([C@@]3(C(F)(F)F)CCOC3)c(=O)cc2n1", "IC50": "20 nM"}
{"COMPOUND": "Cc1c(=O)n(C2(C)CC2)cc2c(N[C@H](C)c3cccc(C(C)(F)F)c3F)ncnc12", "IC50": "9 nM"}
{"COMPOUND": "C[C@@H](Nc1ncnc2cc(=O)n(C3(C)CC3)cc12)c1cccc2c1CCC2=O", "IC50": "25 nM"}
{"COMPOUND": "Cc1nc(N[C@H](C)c2cccc(C(F)F)c2F)c2cn(C34CCC(O)(CC3)CC4)c(=O)cc2n1", "IC50": "3 nM"}
{"COMPOUND": "C[C@@H](Nc1ncnc2cc(=O)n(C34CC(C3)C4)cc12)c1cccc2c1CCC2=O", "IC50": "17 nM"}
{"COMPOUND": "Cc1c(=O)n(C23CCC(CC2)C3)cc2c(N[C@H](C)c3cccc4c3CCC4(F)F)ncnc12", "IC50": "2 nM"}
{"COMPOUND": "Cc1nc(N[C@H](C)c2cccc(C(F)(F)CO)c2F)c2cn(C34CCC(CC3)CC4)c(=O)cc2n1", "IC50": "1 nM"}
{"COMPOUND": "Cc1c(=O)n([C@H]2C[C@@H]2C(F)F)cc2c(N[C@H](C)c3cccc(C(F)F)c3F)ncnc12", "IC50": "17 nM"}
{"COMPOUND": "C[C@@H](Nc1ncnc2cc(=O)n(C3(C)CC3)cc12)c1cccc2c1CCC2(F)F", "IC50": "4 nM"}
{"COMPOUND": "Cc1c(=O)n(C23CCC(F)(CC2)CC3)cc2c(N[C@H](C)c3cccc(C(F)F)c3F)ncnc12", "IC50": "6 nM"}
{"COMPOUND": "Cc1c(=O)n(C23CC(F)(C2)C3)cc2c(N[C@H](C)c3cccc(C(F)F)c3F)ncnc12", "IC50": "12 nM"}
{"COMPOUND": "Cc1nc(N[C@H](C)c2cccc(C(F)F)c2F)c2cn(C34CCC(O)(CC3)CC4)c(=O)c(C)c2n1", "IC50": "4 nM"}
{"COMPOUND": "Cc1nc(N[C@H](C)c2cccc(C(F)(F)F)c2)c2cn(C3(C)CCN(C)CC3)c(=O)cc2n1", "IC50": "26 nM"}
{"COMPOUND": "Cc1nc(N[C@H](C)c2cccc(C(F)(F)F)c2)c2cn(C3(C)CCCOC3)c(=O)cc2n1 (some centres unmarked)", "IC50": "39 nM"}
{"COMPOUND": "Cc1nc(N[C@H](C)c2cccc(C(F)F)c2C)c2cn(C3(C)CC3)c(=O)c(C)c2n1", "IC50": "5 nM"}
{"COMPOUND": "Cc1nc(N[C@H](C)c2cccc(C(F)(F)F)c2C)c2cn(C3(C)CCOC3)c(=O)cc2n1 (some centres unmarked)", "IC50": "5 nM"}
{"COMPOUND": "Cc1nc(N[C@H](C)c2cccc3c2CCC3(F)F)c2cn(C34CCN(CC3)C4)c(=O)c(C)c2n1", "IC50": "2 nM"}
{"COMPOUND": "Cc1nc(N[C@H](C)c2cccc(C(F)(F)F)c2)c2cn(C3(C)CCOCC3)c(=O)cc2n1", "IC50": "13 nM"}
{"COMPOUND": "Cc1nc(N[C@H](C)c2cccc(C(F)(F)F)c2)c2cn(C34CCC(CC3)C4)c(=O)cc2n1", "IC50": "10 nM"}
{"COMPOUND": "C[C@@H](Nc1ncnc2cc(=O)n(C34CCC(CC3)C4)cc12)c1cccc2c1CCC2=O", "IC50": "6 nM"}
{"COMPOUND": "C[C@@H](Nc1ncnc2cc(=O)n(C34CC(C3)C4)cc12)c1cccc2c1CCC2(F)F", "IC50": "4 nM"}
{"COMPOUND": "Cc1c(=O)n(C2(CF)CC2)cc2c(N[C@H](C)c3cccc(C(F)F)c3F)ncnc12", "IC50": "7 nM"}
{"COMPOUND": "Cc1c(=O)n(C2(C)CC2)cc2c(N[C@H](C)c3cccc(C(F)F)c3F)ncnc12", "IC50": "12 nM"}
{"COMPOUND": "Cc1c(=O)n(C23CC(F)(C2)C3)cc2c(N[C@H](C)c3cccc(C(C)(F)F)c3F)ncnc12", "IC50": "10 nM"}
{"COMPOUND": "Cc1c(=O)n(C23CC(F)(C2)C3)cc2c(N[C@H](C)c3cccc(C(F)(F)C(C)(C)O)c3F)ncnc12", "IC50": "5 nM"}
{"COMPOUND": "Cc1nc(N[C@H](C)c2cccc(C(F)(F)F)c2)c2cn(C(C)(C)C)c(=O)cc2n1", "IC50": "25 nM"}
{"COMPOUND": "Cc1c(=O)n([C@@H]2C[C@H]2C(F)F)cc2c(N[C@H](C)c3cccc(C(F)F)c3F)ncnc12", "IC50": "26 nM"}
{"COMPOUND": "Cc1nc(N[C@H](C)c2cccc(C(F)F)c2C)c2cn(C3(C)CCOC3)c(=O)cc2n1 (some centres unmarked)", "IC50": "3 nM"}
